Recorded Fold increase in IC50 relative to 1-1-A1_BM by entry
Biological target: T1, untagged human CD47 protein (Sinobiological Inc) (human, UniProt Q08722 19-141)
T1 construct: Bought
Assay: competition ELISA: inhibition of His-tagged SIRPα binding to coated human CD47
quantity kind: Fold increase in IC50 relative to 1-1-A1_BM (fold)

>  <binder>
11A1H7-IgG1 (antibody, V domains shown, Humanised version of clone 1-1-A1, IgG1/kappa; also called 1A11H7) VH: QVQLVQSGAEVKKPGASVKVSCKASGYTFTGYVIHWVRQAPGQGLEWMGYINPYNGGTNYAQKFKGRVTLTSDTSTTTAYMELSRLRSEDTAVYYCASGGYYTMDYWGQGTLVTVSS VL: DVVMTQSPLSLPVTLGQPASISCRSSQHLEYSQGYSYLHWYQQRPGQSPRLLIYKVSNRDSGVPDRFSGSGSGTDFTLKISRVEAEDVGVYYCSQSTHVPYTFGGGTKVEIKR

>  <measurement units>
fold

>  <bound type>
>

>  <reported value>
200

$$$$
>  <binder>
11A1H4-IgG1 (antibody, V domains shown, Humanised version of clone 1-1-A1, IgG1/kappa; also called 1A11H4) VH: QVQLVQSGAEVKKPGASVKVSCKASGYTFTNYVIHWVRQAPGQGLEWMGYINPYNDGTKYNQKFKGRVTLTSDTSTTTAYMELSRLRSDDTAVYYCASGGYYTMDYWGQGTLVASTK VL: DVVMTQSPLSLPVTLGQPASISCRSSQHLEYSNGYSYLHWYQQRPGQSPRLLIYKISNRFSGVPDRFSGSGSGTDFTLKISRVEAEDVGVYYCSQSTHVPYTFGGGTKVEIKR

>  <measurement units>
fold

>  <bound type>
=

>  <reported value>
0.32

$$$$
>  <binder>
11A1H9-IgG1 (antibody, V domains shown, Humanised version of clone 1-1-A1, IgG1/kappa; also called 1A11H9) VH: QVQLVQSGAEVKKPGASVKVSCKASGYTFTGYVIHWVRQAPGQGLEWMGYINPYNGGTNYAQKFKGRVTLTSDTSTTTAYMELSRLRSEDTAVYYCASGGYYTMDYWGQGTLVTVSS VL: DVVMTQSPLSLPVTLGQPASISCRSSQHLEYSTGYSYLHWYQQRPGQSPRLLIYKVSNRDSGVPDRFSGSGSGTDFTLKISRVEAEDVGVYYCSQSTHVPYTFGGGTKVEIKR

>  <measurement units>
fold

>  <bound type>
>

>  <reported value>
200

$$$$
>  <binder>
11A1H11-IgG1 (antibody, V domains shown, Humanised version of clone 1-1-A1, IgG1/kappa; also called 1A11H11) VH: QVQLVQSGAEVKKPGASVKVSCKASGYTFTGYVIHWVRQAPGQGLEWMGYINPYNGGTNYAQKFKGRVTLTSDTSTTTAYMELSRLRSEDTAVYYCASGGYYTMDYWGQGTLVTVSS VL: DVVMTQSPLSLPVTLGQPASISCRSSQHLEYSNGYSYLHWYQQRPGQSPRLLIYKISNRFSGVPDRFSGSGSGTDFTLKISRVEAEDVGVYYCSQGTHVPYTFGGGTKVEIKR

>  <measurement units>
fold

>  <bound type>
=

>  <reported value>
1.02

$$$$
>  <binder>
11A1H10-IgG1 (antibody, V domains shown, Humanised version of clone 1-1-A1, IgG1/kappa; also called 1A11H10) VH: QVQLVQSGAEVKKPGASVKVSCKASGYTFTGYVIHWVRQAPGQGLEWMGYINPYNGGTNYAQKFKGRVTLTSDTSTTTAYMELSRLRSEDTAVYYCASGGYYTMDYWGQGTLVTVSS VL: DVVMTQSPLSLPVTLGQPASISCRSSQHLEYSNGYSYLHWYQQRPGQSPRLLIYKVSNRDSGVPDRFSGSGSGTDFTLKISRVEAEDVGVYYCSQSTHVPYTFGGGTKVEIKR

>  <measurement units>
fold

>  <bound type>
>

>  <reported value>
200

$$$$
>  <binder>
11A1H6-IgG1 (antibody, V domains shown, Humanised version of clone 1-1-A1, IgG1/kappa; also called 1A11H6) VH: QVQLVQSGAEVKKPGASVKVSCKASGYTFTNYVIHWVRQAPGQGLEWMGYINPYNDGTKYNQKFKGRVTLTSDTSTTTAYMELSRLRSDDTAVYYCASGGYYTMDYWGQGTLVASTK VL: DVVMTQSPLSLPVTLGQPASISCRSSQHLEYSQGYSYLHWYQQRPGQSPRLLIYKVSNRDSGVPDRFSGSGSGTDFTLKISRVEAEDVGVYYCSQSTHVPYTFGGGTKVEIKR

>  <measurement units>
fold

>  <bound type>
>

>  <reported value>
200

$$$$
>  <binder>
11A1H5-IgG1 (antibody, V domains shown, Humanised version of clone 1-1-A1, IgG1/kappa; also called 1A11H5) VH: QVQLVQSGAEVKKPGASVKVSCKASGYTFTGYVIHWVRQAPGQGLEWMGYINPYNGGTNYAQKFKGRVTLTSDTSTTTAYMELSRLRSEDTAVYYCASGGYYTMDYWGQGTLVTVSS VL: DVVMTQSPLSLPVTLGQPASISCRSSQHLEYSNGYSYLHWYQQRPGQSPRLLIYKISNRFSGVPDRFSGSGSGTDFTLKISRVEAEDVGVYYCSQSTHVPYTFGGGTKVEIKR

>  <measurement units>
fold

>  <bound type>
=

>  <reported value>
0.42

$$$$
>  <binder>
anti-CD47 clone 1-1-A1_BM IgG1 (antibody, V domains shown) VH: QVQLQQSGPDLKKPGASVKVSCKVSGYTFTNYVIHWVRQKPGQGLEWMGYINPYNDGTKSNEKFKGKATLTSDKSSTSAYMELSSLTSEDTAVYYCASGGYYTMDYWGQGTSVTVSS VL: DVVMTQTPLSLPVTLGDQASISCRSSQHLEYSNGYSYLHWYQQRPGQSPQLLIYKISNRFSGVPDRFSGSGSGTDFTLKISRVEAEDLGVYYCSQSTHVPYTFGGGTKLEIKR

>  <measurement units>
fold

>  <bound type>
=

>  <reported value>
1

$$$$
